- protocol summary: Solubility by gravimetric method in 14 solvents
- Assay type: physicochemical
- experimental parameters: ethanol, organic solvent or mixture, thermodynamic from solid; EtOH, 50 °C
- Experimental: Solubility measurements were done by gravimetric method in 14 different solvents at two temperatures (23° C. and 50° C.). About 25-35 mg solid was dispensed in 2 mL vials and 0.75 mL solvent was added to form a slurry. The slurries were then stirred for two days. The vials were centrifuged and the supernatant was collected for solubility measurement by gravimetric method.
readout label: solubility at 2 days

{"smiles structure": "CCNn1c(C)c(C(=O)N[C@H](c2ccccc2)C2CC2)c2cccc(F)c2c1=O", "result": "> 42 mg/mL"}

----------
- protocol summary: Solubility by gravimetric method in 14 solvents
- Format: physicochemical
- experimental parameters: acetic acid, 23 °C, organic solvent or mixture, thermodynamic from solid

{"compound": "CCNn1c(C)c(C(=O)N[C@H](c2ccccc2)C2CC2)c2cccc(F)c2c1=O [SJB-01]", "solubility at 2 days": "> 72 mg/mL"}

----------
- protocol summary: Solubility in buffered solutions vs pH at 37 °C (HPLC)
- Type: physicochemical
- experimental parameters: HCl/KCl 0.05M buffer, pH 1.3, simulated gastric fluid, thermodynamic from solid; HCl/KCl 0.05M, initial pH 1.34, 24 h pH 1.30, 37 °C; jet-milled beta form; read-out: Solubility at 24 h

{"smiles structure": "CCNn1c(C)c(C(=O)N[C@H](c2ccccc2)C2CC2)c2cccc(F)c2c1=O", "unit spec": "µg/mL", "solubility at 24 h": 7.8}

----------
- protocol summary: Solubility by gravimetric method in 14 solvents
- Assay type: physicochemical
- experimental parameters: EtOAc, 50 °C, organic solvent or mixture, thermodynamic from solid
readout label: solubility at 2 days (mg/mL)

{"compound": "CCNn1c(C)c(C(=O)N[C@H](c2ccccc2)C2CC2)c2cccc(F)c2c1=O [SJB-01]", "readout label": "solubility at 2 days", "numeric result": 67}

----------
- protocol summary: Solubility in buffered solutions vs pH at 37 °C (HPLC)
- Format: physicochemical
- experimental parameters: Britton-Robinson 0.05M buffer, aqueous buffer, thermodynamic from solid; Britton-Robinson 0.05M, initial pH 2.85, 24 h pH 2.97, 37 °C; read-out: Solubility at 24 h

{"smiles structure": "CCNn1c(C)c(C(=O)N[C@H](c2ccccc2)C2CC2)c2cccc(F)c2c1=O", "solubility at 24 h, µg/mL": 7.4}

----------
- protocol summary: Solubility by gravimetric method in 14 solvents
- Assay type: physicochemical
- experimental parameters: organic solvent or mixture, thermodynamic from solid; MeOH, 23 °C; lot L100142-1-1
readout label: solubility at 2 days

{"smiles structure": "CCNn1c(C)c(C(=O)N[C@H](c2ccccc2)C2CC2)c2cccc(F)c2c1=O", "readout label": "solubility at 2 days", "result": "> 76 mg/mL"}

----------
- protocol summary: Solubility by gravimetric method in 14 solvents
- Format: physicochemical
- experimental parameters: EtOAc, 23 °C, organic solvent or mixture, thermodynamic from solid
readout label: solubility at 2 days (mg/mL)

{"smiles structure": "CCNn1c(C)c(C(=O)N[C@H](c2ccccc2)C2CC2)c2cccc(F)c2c1=O", "unit spec": "mg/mL", "numeric result": 42}

----------
- protocol summary: Solubility by gravimetric method in 14 solvents
- Format: physicochemical
- experimental parameters: EtOH, 23 °C, organic solvent or mixture, thermodynamic from solid
readout label: solubility at 2 days

{"smiles structure": "CCNn1c(C)c(C(=O)N[C@H](c2ccccc2)C2CC2)c2cccc(F)c2c1=O", "result": "> 42 mg/mL"}

The origin of these recorded values is patent US20210371385A1.
